Just for reference, the supplement of paper PMC6555819 is where these values come from.

# Tested on: PPARg DBDmut:RXRa IVT, anti-PPARg (DBD mutation: PPARg1 K132A/R137A, NR concentration 270 nM, RXRa partner concentration 90 nM)
# protocol.text: PBM binding z-score (relative to random genomic background probes); higher = stronger binding; sequences stand for … in GC…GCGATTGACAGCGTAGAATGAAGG
Assign class by PBM binding z-score: not lower than 2 means 1.0; lower than 2 means 0.0.

Example entries begin here.
[[record]]
construct_sequence = "CAAACTAGGTCACGAAAGGACAAAGTCGAATGAC"
class_assignment = 1.0

[[record]]
construct_sequence = "ATCTCTAGGTAAAGTTCAGTGAAAGATCGATAGA"
class_assignment = 0.0

[[record]]
construct_sequence = "TGTTAAAGTTCAAAGGTAACGTAAGTATCCACAC"
class_assignment = 1.0

[[record]]
construct_sequence = "GATACAGGGTCACCTAGAGGCCAGAGTATGGAAA"
class_assignment = 1.0

[[record]]
construct_sequence = "ATCTCTAGGCAACAAGTTCAGTGAAAGAGAGGAC"
class_assignment = 0.0


Turning now to a further record.
Exam item: Confirm if PBM binding z-score reported for the sequence AGTCAAAGTTCATCTCGGTAACGTAAGATATGCT is 2 or above.
Marked response: 0.0

###

# Tested on: RARa homodimer (NR concentration 270 nM)
# protocol.text: PBM binding z-score (relative to random genomic background probes); higher = stronger binding; sequences stand for … in GC…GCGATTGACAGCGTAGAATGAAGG
Assign class by PBM binding z-score: not lower than 0.6 means true (1); lower than 0.6 means false (0).

Example entries begin here.
[[record]]
construct_sequence = "CCGACTGGGGCAGAAAAGTTACCATACCATCCGG"
class_assignment = "false (0)"

[[record]]
construct_sequence = "CGTCCAATGTCAGAGAGGTCAGTGAATGCCGAGT"
class_assignment = "true (1)"

[[record]]
construct_sequence = "AATACAGGGTCATCGTAGGCCAGAGTGCGCACAG"
class_assignment = "false (0)"

[[record]]
construct_sequence = "AGAATGAGGTTATACGTAGATCGGGGAAGAAAGT"
class_assignment = "false (0)"

[[record]]
construct_sequence = "CCTAGTTGGTCAGGAGGTCAAACACCGGATATGA"
class_assignment = "true (1)"


Exam item: Confirm if PBM binding z-score reported for the sequence GGAACGAGGGCAATGTTGATAGCATCTGTCGACG is 0.6 or above.
Marked response: false (0)

Exam item: Confirm if PBM binding z-score reported for the sequence CGAACTAGGTCAAGGGCAGTGAATCTCCGCACGC is 0.6 or above.
Marked response: false (0)

Exam item: Confirm if PBM binding z-score reported for the sequence ACAGACAGGTGAGTGACGGTAACTCAGCTGGACG is 0.6 or above.
Marked response: false (0)

Exam item: Confirm if PBM binding z-score reported for the sequence TGTCAAAGTTCAAAGGTAAAGTAAGTATCCACAC is 0.6 or above.
Marked response: true (1)

Exam item: Confirm if PBM binding z-score reported for the sequence GCTTTTAGTTGAAAGGGCAACCGAATGATTCTCG is 0.6 or above.
Marked response: false (0)

Exam item: Confirm if PBM binding z-score reported for the sequence CCGAGTAGGTTATGGGGCATTCATGCAACGGTGA is 0.6 or above.
Marked response: false (0)

###

# Test system: LXRa:RXRa (NR concentration 270 nM, RXRa partner concentration 90 nM)
# protocol.text: PBM binding z-score (relative to random genomic background probes); higher = stronger binding; sequences stand for … in GC…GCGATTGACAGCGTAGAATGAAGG
So basically every entry gets a class from its PBM binding z-score, ranges being lower range = under -0.2, middle range = from -0.2 up to 4, upper range = 4 and over

[[record]]
construct_sequence = "TCTGCTAGGTCAACGATGGTCAGCTAATCTGCTA"
class_assignment = "middle range"

[[record]]
construct_sequence = "TTACCAAGGTGAAAGGTCGTTGTTGCACGCCTTG"
class_assignment = "middle range"

[[record]]
construct_sequence = "ATATGTAGGTTAAGGGTCATTAAGGTTGGTTCGC"
class_assignment = "upper range"


Exam item: Which of the defined bands does the recorded PBM binding z-score of CCTAGCAGGCCAGGGTAACTCAAGCATTTCGCTT sit within?
Marked response: lower range

Exam item: Which of the defined bands does the recorded PBM binding z-score of ATATGTCGGTTAGCTGGGGTCATTCAGACTAGGC sit within?
Marked response: upper range

###

# Test system: RARb homodimer (NR concentration 270 nM)
# protocol.text: PBM binding z-score (relative to random genomic background probes); higher = stronger binding; sequences stand for … in GC…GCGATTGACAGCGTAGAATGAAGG
Assign class by PBM binding z-score: not lower than 3 means t; lower than 3 means f.

Example entries begin here.
[[record]]
construct_sequence = "CGTCCAAGGTCAGAGAGCTCAGTGAATGCCGAGT"
assayed_target = "RARb homodimer (NR concentration 270 nM)"
class_assignment = "t"

[[record]]
construct_sequence = "AGAACGAGGGCACGCTGAGTTGTTAGCAGAGTAG"
assayed_target = "RARb homodimer (NR concentration 270 nM)"
class_assignment = "f"

[[record]]
construct_sequence = "TCCTATAGGTAAACAGGTGAAAGTCCGTAAGTTA"
assayed_target = "RARb homodimer (NR concentration 270 nM)"
class_assignment = "f"

[[record]]
construct_sequence = "GTACCAATGTGAATAGGTCGTTGATGAGTAGGCG"
assayed_target = "RARb homodimer (NR concentration 270 nM)"
class_assignment = "f"

[[record]]
construct_sequence = "TCGAGTAGGTTAGGAGCATTCAGAATGGCGTCGA"
assayed_target = "RARb homodimer (NR concentration 270 nM)"
class_assignment = "f"


Exam item: Confirm if PBM binding z-score reported for the sequence TGTTGTAGATCAACAGGAGGTTAAGAAAGATCGA is 3 or above.
Marked response: f

Exam item: Confirm if PBM binding z-score reported for the sequence AGAATGAGGTTATTAAGATCTGGGAATTGCGGTC is 3 or above.
Marked response: f

Exam item: Confirm if PBM binding z-score reported for the sequence CACACTAGGTCACGAAAGGTCAAAGTCGAATGAC is 3 or above.
Marked response: t

Exam item: Confirm if PBM binding z-score reported for the sequence CAAACTAGGACACGAAAGGTCAAAGTCGAATGAC is 3 or above.
Marked response: t

Exam item: Confirm if PBM binding z-score reported for the sequence ATATGTATGTTATCGGGTCATTCAGTTTGCGCAT is 3 or above.
Marked response: f

###

# Tested on: THRa:RXRa (NR concentration 90 nM, RXRa partner concentration 90 nM)
# protocol.text: PBM binding z-score (relative to random genomic background probes); higher = stronger binding; sequences stand for … in GC…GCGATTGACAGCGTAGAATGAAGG
metric: PBM binding z-score
Form field (numeric): enter value without unit.

[[record]]
construct_sequence = "TATACAGGGACAAAGGCCAGAGTACGAATGTCGA"
measured = 0.949

[[record]]
construct_sequence = "AATGCAGGGTCATCGTAGGCCAGAGTACGCACAG"
measured = 4.6

[[record]]
construct_sequence = "ATCTCGAGGTAAAAGTTCAGTGAATCCCGAGGAT"
measured = 1.99

[[record]]
construct_sequence = "GGAACGAGGGCAAAGTTGATACCATCTGTCGACG"
measured = 1.47

[[record]]
construct_sequence = "ACTCGGAGGACCAAGGTCAGAGCTACGCCAGTGA"
measured = 2.44

[[record]]
construct_sequence = "TCTCGGAGGACACGAAGGCCAGAGCTTTCCAGAG"
measured = 1.43

[[record]]
construct_sequence = "AGAACGAGGGCACGCTGAGTTGACAGCAGAGTAG"
measured = 2.16

[[record]]
construct_sequence = "GCAAGTTGGTCAGTAAAAGGTCACACACCGGTCG"
measured = 3.61


Now consider the entry below.
Exam item: Return PBM binding z-score for the following sequence: CAAACTAGGTAACCGGAAGGTCAAAGTCCGCATG
Marked response: 3.26

###

# Tested on: PPARg:RXRa DBDmut IVT, anti-RXR (DBD mutation: RXRa K156A/R161A, NR concentration 270 nM, RXRa partner concentration 90 nM)
# protocol.text: PBM binding z-score (relative to random genomic background probes); higher = stronger binding; sequences stand for … in GC…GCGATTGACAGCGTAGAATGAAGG
Assign class by PBM binding z-score: not lower than 1 means T; lower than 1 means F.

Example entries begin here.
[[record]]
construct_sequence = "CGTCCAAGGTCAGAGAGGTCAATGAATGCCGAGT"
class_assignment = "T"

[[record]]
construct_sequence = "TCGAGTAGGTTACCAATGGGGCGTTCAGCTTTCT"
class_assignment = "T"

[[record]]
construct_sequence = "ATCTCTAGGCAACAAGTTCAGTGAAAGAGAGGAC"
class_assignment = "F"


Exam item: Confirm if PBM binding z-score reported for the sequence ATACCAAGGTGATTGTGAGGTCGTTGATACTAAC is 1 or above.
Marked response: F

Exam item: Confirm if PBM binding z-score reported for the sequence CGTCCAAGGTCAAAGGAGGTCAGTGAAGACAGAT is 1 or above.
Marked response: T
